Biological target: ABCG5/G8 (Homo sapiens, UniProt Q9H221+Q9H222, Q9H222:A540F)
Sequence (Q9H222 whole entry A540F): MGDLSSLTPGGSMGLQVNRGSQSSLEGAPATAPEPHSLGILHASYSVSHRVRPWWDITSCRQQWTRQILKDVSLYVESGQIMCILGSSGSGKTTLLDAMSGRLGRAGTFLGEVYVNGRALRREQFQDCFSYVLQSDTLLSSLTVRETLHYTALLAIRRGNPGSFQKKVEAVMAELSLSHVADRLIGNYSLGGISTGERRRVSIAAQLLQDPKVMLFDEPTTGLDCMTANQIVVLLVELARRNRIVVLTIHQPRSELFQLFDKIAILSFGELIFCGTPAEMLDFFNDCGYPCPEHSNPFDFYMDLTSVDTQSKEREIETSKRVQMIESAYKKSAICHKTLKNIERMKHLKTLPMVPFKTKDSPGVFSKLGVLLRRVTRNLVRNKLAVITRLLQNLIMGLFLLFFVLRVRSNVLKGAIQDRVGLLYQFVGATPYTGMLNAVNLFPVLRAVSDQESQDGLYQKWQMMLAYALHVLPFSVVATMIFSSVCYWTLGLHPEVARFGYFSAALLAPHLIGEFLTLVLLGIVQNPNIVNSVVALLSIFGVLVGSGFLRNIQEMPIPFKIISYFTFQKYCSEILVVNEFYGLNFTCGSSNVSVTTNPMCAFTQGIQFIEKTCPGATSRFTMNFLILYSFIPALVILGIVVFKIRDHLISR
Sequence (Q9H221 whole entry): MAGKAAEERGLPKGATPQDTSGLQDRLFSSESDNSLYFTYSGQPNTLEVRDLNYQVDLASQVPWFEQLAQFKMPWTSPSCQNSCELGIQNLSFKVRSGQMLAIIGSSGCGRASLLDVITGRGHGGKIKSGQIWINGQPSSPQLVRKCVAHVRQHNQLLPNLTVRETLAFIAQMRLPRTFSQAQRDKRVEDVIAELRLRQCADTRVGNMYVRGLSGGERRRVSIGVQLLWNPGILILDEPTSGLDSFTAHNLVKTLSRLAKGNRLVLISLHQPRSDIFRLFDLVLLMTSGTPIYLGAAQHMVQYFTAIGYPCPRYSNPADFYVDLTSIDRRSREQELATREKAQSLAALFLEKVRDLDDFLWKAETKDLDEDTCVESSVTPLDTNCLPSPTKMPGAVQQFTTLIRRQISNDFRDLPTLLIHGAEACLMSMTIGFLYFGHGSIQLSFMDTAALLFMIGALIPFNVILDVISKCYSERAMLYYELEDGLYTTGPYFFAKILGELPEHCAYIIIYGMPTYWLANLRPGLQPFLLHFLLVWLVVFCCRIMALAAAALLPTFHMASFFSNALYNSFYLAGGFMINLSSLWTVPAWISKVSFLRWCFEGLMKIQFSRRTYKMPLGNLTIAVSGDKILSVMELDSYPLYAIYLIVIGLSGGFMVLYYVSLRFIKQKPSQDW
Test: [3H]cholesterol binding, Ni-NTA bead pull-down, scintillation counting
value.type: Kd
The answer consists of two parts: a number and, after it, its unit.

Request: What value of Kd has been recorded for this entry: CC(C)CCC[C@@H](C)[C@H]1CC[C@H]2[C@@H]3CC=C4C[C@@H](O)CC[C@]4(C)[C@H]3CC[C@]12C
Response: 1550 nM
